Target: T1, PUF4 RNA-binding domain (Saccharomyces cerevisiae, UniProt P25339 537-888)
T1 sequence: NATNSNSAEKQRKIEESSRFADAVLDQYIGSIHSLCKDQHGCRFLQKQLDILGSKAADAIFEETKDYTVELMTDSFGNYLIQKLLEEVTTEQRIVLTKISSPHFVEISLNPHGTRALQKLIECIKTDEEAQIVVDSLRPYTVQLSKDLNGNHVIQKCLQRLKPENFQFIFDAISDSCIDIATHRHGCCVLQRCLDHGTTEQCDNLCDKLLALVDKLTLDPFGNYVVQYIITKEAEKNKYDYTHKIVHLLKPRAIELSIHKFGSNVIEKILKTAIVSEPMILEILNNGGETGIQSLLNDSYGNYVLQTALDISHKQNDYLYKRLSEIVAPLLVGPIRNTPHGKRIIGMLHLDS
Assay: Mg; RNA-MaP; 20 mM Na-HEPES pH 7.4, 30 mM KOAc, 0.75 mM MgCl2, 0.1% Tween-20, 5% glycerol, 0.1 mg/mL BSA, 2 mM DTT; 25 C; 0.0125-409.6 nM protein
Details: tags: N-His6-TEV cleaved; C-SNAP kept, Cy3B-labelled; label: tethered on chip by stalled RNA polymerase
The entries below are paired with their reported Kd.

{"BINDER": "UCUCUUUGUAGCUACGUCUCUU (ssRNA) [Ic_S1_P5E.1_K5.1_C5.1_H5.1_A5.1_[T5G]_[T6C]_[A7T]_F5.1_[T8A]_[T9C]_[A10G]_T5.1]", "COMPARATOR": ">", "Kd / nM": 2300}
{"BINDER": "UCUCUUCUUCUUGUAUAUAUAUCUCUU (ssRNA) [Ie_S1_P3E.2_K3.1_C3.2_[+-1TCT]_H3.1_A3.1_F3.1_T3.2]", "COMPARATOR": "=", "Kd / nM": 4.28}
{"BINDER": "Ic_S2_P4E.1_K4.1_C4.1_H4.1_A4.1_[T5C]_F4.1_[T8A]_[A9C]_T4.1 (ssRNA) RNA: UUUGAUUAAUAUGAUAUCGUUCUUUCUUGUACAUACUUCUUUCUCGAUAUCAUAUUAAUCUUU", "COMPARATOR": "=", "Kd / nM": 4.76}
